Molecular target: SARS-CoV 3CLpro (Severe acute respiratory syndrome coronavirus)
Binary label based on IC50 with cut-off 20 nM: below gives 1, not below gives 0.

// below: answered compounds
CCC(C)(C)[C@H](NC(=O)C1CC1)C(=O)N1C[C@H]2[C@@H]([C@H]1C(=O)NN(C[C@@H]1CCNC1=O)C(=O)[C@H](F)Cl)C2(C)C	1
CC1(C)C[C@@H](C(=O)NN(C[C@@H]2CCNC2=O)C(=O)[C@H](F)Cl)N(C(=O)[C@@H](NC(=O)C2CC2)C(C)(C)C)C1	0
CC[C@@H](C)[C@H](NC(=O)C1CC(F)(F)C1)C(=O)N1C[C@H]2[C@@H]([C@H]1C(=O)NN(C[C@@H]1CCNC1=O)C(=O)[C@H](F)Cl)C2(C)C	0
CC(C)(C)[C@H](NC(=O)[C@H]1CC1(F)F)C(=O)N1C[C@@H]2CCC[C@@H]2[C@H]1C(=O)NN(C[C@@H]1CCNC1=O)C(=O)[C@H](F)Cl	1
CC[C@H](C)[C@H](NC(=O)C1CC1(F)F)C(=O)N1C[C@@H]2CCC[C@@H]2[C@H]1C(=O)NN(C[C@@H]1CCNC1=O)C(=O)[C@H](F)Cl (mixture of isomers)	0

Turning now to a further record.
Task: Does the reported IC50 of `CC(F)(F)C(=O)N[C@H](C(=O)N1C[C@@H]2CCC[C@@H]2[C@H]1C(=O)NN(C[C@@H]1CCNC1=O)C(=O)[C@H](F)Cl)C(C)(C)C` stay below 20 nM?
Result: 1
